Provide the recorded IC50 for the entries that follow.
Biological target: P2X3 (UniProt P56373)
Assay: P2X3 FLIPR intracellular calcium assay
Conditions: agonist at EC75, species (human or rat) not given

- Cc1ccc(-c2cnc3c(-n4nnnc4C4CCC4)cc(C(=O)NC(C)c4cnccn4)cn23)s1 (stereo not shown): > 10 µM
- Cc1ccc(-c2cnc3c(-n4nnnc4C(C)C)cc(C(=O)NCc4ccc(C(F)(F)F)nc4)cn23)s1: > 10 µM
- Cc1ccc(CNC(=O)c2cc(-n3nnnc3C)c3ncc(-c4ccc(C)s4)n3c2)cn1: 0.001 to 0.1 µM
- CCc1cnnn1-c1cc(C(=O)N[C@H](c2nnc[nH]2)C(C)C)cn2c(-c3ccc(C)s3)cnc12: 0.1 to 1 µM
- Cc1ccc(-c2cnc3c(-n4nncc4C(F)F)cc(C(=O)N[C@@H](C)c4nnco4)cn23)s1: 0.001 to 0.1 µM
- Cc1ccc(-c2cnc3c(Nc4ccccc4)cc(C(=O)NCc4ccn(C)c(=O)c4)cn23)s1: 0.001 to 0.1 µM
- Cc1cnc(CNC(=O)c2cc(-n3nncc3C(F)F)c3ncc(-c4ccc(C)o4)n3c2)cn1: 0.001 to 0.1 µM
- Cc1cnc(-c2cnc3c(-c4c(C)noc4C)cc(C(=O)N[C@@H](C)c4nnc[nH]4)cn23)s1: 0.001 to 0.1 µM

// for each compound in input: emit IC50
1. Cc1ccc(-c2cnc3c(-n4c(C)nnc4C)cc(C(=O)N[C@@H](C)c4nnc[nH]4)cn23)s1
2. Cc1ccc(-c2cnc3c(-c4ccnn4C)cc(C(=O)N[C@@H](C)c4nnc[nH]4)cn23)s1
3. CCc1cnnn1-c1cc(C(=O)N[C@H](C)c2nc(C)no2)cn2c(-c3ccc(C)s3)cnc12
4. Cc1ccc(-c2cnc3c(-n4nnnc4C(C)C)cc(C(=O)NC(C)c4cnccn4)cn23)s1 (stereo not shown)
5. Cc1cnc(CNC(=O)c2cc(N3CCC(C)CC3)c3ncc(-c4ccc(C)s4)n3c2)cn1
6. Cc1ncc(CNC(=O)c2cc(-n3nncc3C3CCC3)c3ncc(-c4ncc(C)s4)n3c2)cn1
7. Cc1ccc(CNC(=O)c2cc(-n3nncc3C)c3ncc(-c4ccc(C)s4)n3c2)cn1

1. 1 to 10 µM
2. 0.001 to 0.1 µM
3. > 10 µM
4. 0.1 to 1 µM
5. 1 to 10 µM
6. > 10 µM
7. 0.001 to 0.1 µM

In one line, give reported IC50 of the entry `CCc1nnc(-c2cc(C(=O)NCc3ccc(C)nc3)cn3c(-c4ccc(C)s4)cnc23)o1` .
0.001 to 0.1 µM

src = patent US10316039B2
